Measured normalized growth, listed per entry.
Experiment: chemical genetic growth profiling, strain panel (AID 1159580);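 note: tested at 20 µM; growth read once vehicle control cultures reached saturation at 30 °C; 1 = growth at the plate median or of vehicle wells; lower values mean less growth of the strain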
Settings: S. cerevisiae deletion strains, growth OD, locus YHR079C, strain IRE1 (second series), hits give low values
Among all 5,500 compounds or so, about 2,000 (36%) were called active. Inconclusive results (about 18%) are left out. Some of the results follow.
parameterMeasured: normalized growth

> print(dat)
                                   compound  parametermeasured  number
1            CC(=O)c1cc2c(cc1O)OC(C)(C)C=C2  normalized growth   0.988
2  OC(c1cc(C(F)(F)F)nc2c(C(F)(F)F)cccc12)C1CCCCN1 (stereo not given)  normalized growth   0.985
3  CC[C@H]1CN2CCc3cc(OC)c(OC)cc3C2C[C@@H]1CC1NCCc2cc(OC)c(OC)cc21 (stereo not given in full)  normalized growth       1
4          CCN(CC)CCNC(=O)c1cc(Cl)c(N)cc1OC  normalized growth   0.994
5  CC(=O)OCC(=O)[C@@]12OC3(CCCC3)O[C@@H]1CC1C3CCC4=CC(=O)C=C[C@]4(C)[C@@]3(F)[C@@H](O)C[C@@]12C (stereo not given in full)  normalized growth   0.986
